Values of IC50 for DNA polymerase beta (Rattus norvegicus, UniProt P06766), collected from a number of published sources:
Entries whose IC50 is below 40 µM take Met; entries at or above 40 µM take Not met.

# strict comparison: is reported IC50 < 40 µM? input = CO/N=C1/CC[C@]2(C)[C@H]3CC=C4[C@@H]5C[C@](C)(C(=O)O)CC[C@]5(C)CC[C@@]4(C)[C@]3(C)CC[C@H]2C1(C)C Met

# strict comparison: is reported IC50 < 40 µM? input = C=C(C)[C@@H]1CC[C@]2(C)[C@H](CC=C3[C@@H]4C[C@@](C)(C(=O)O)CC[C@]4(C)CC[C@]32C)[C@@]1(C)CCC(=O)O Met

# strict comparison: is reported IC50 < 40 µM? input = COc1cc2cc(Oc3ccc4ccc(=O)oc4c3)c(=O)oc2cc1O Not met

# strict comparison: is reported IC50 < 40 µM? input = O=c1ccc2ccc(Oc3cc4cc(O)c(O)cc4oc3=O)cc2o1 Not met

# strict comparison: is reported IC50 < 40 µM? input = CC1(C)/C(=N\OCc2ccccc2)CC[C@]2(C)[C@H]3CC=C4[C@@H]5C[C@](C)(C(=O)O)CC[C@]5(C)CC[C@@]4(C)[C@]3(C)CC[C@@H]12 Met

# strict comparison: is reported IC50 < 40 µM? input = COc1cc(O)c2c(c1)C1(OC2=O)C(C)=CC(=O)C1O (stereo not drawn) Met

# strict comparison: is reported IC50 < 40 µM? input = CC(C)CCC[C@@H](C)[C@H]1CCC2C3CC=C4C[C@@H](OCC(=O)O)CC[C@]4(C)C3CC[C@@]21C (stereo partly drawn) Not met

# strict comparison: is reported IC50 < 40 µM? input = CCCCCCCCCCCCOc1cc(O)c2c(c1)C1=CC(=O)C(O)=CC1(C)OC2=O (stereo not drawn) Met
